STUDY_SYSTEM: Fes (UniProt P07332)
Sequence (P07332 whole entry, looked up): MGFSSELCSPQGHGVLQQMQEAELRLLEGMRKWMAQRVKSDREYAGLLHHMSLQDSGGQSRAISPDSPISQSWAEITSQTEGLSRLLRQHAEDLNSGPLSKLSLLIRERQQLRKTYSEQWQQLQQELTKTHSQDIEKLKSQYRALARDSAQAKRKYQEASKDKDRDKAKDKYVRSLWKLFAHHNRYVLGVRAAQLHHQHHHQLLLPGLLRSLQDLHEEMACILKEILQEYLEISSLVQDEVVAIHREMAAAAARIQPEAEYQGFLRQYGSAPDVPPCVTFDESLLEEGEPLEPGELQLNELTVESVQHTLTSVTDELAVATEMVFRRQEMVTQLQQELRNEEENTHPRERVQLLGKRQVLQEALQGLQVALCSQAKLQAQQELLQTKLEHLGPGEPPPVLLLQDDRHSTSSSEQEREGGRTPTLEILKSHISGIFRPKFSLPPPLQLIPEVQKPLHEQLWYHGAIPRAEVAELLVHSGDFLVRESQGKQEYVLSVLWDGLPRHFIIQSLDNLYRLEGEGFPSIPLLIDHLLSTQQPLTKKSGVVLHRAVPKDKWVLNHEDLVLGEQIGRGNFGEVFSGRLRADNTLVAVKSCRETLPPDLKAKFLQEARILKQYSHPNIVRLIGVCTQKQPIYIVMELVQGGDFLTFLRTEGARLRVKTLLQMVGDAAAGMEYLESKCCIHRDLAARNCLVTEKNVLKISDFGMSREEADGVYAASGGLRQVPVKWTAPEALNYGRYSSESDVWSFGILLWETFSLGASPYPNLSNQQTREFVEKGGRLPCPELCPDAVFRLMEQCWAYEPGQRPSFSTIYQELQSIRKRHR
PROTOCOL_SUMMARY: phosphorylation enrichment, bacterial display (enrichment ratio); higher = better substrate or ligand; peptides without Tyr show the background;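 note: 11-residue human phosphosite peptides and single-mutation variants displayed on the E. coli surface, counted by deep sequencing, each peptide's frequency after selection divided by its frequency in the unselected input library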;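 note: frequency after pTyr selection over input frequency; kinase dosed for 20-30% of maximal phosphorylation in three min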
Label y when phosphorylation enrichment is at or above 0.8; anything below gets n.

As a guide, the following entries are already answered.
- TINPIYEHVGY [CHN1_Y143]: y
- EKMWTYMPSAE [GRIA4_Y695_R697P]: y
- GIYEDYVEGLR [MYL6_Y89_T85I]: y
- HTLMKYTDGDQ [PUS7L_Y94_I92M]: y
- KRIKSYNQEND [RPGRIP1L_Y448_L447S]: n

Determine whether measured phosphorylation enrichment meets or exceeds 0.8 for RGKDSYETSKL [SPP1_Y225_Q229K]
y

Determine whether measured phosphorylation enrichment meets or exceeds 0.8 for QLQVFYATRDQ [MIPEP_Y579_L582R]
y

Determine whether measured phosphorylation enrichment meets or exceeds 0.8 for DLDPNYVVSSR [CKM_Y125_L127V]
y

Determine whether measured phosphorylation enrichment meets or exceeds 0.8 for TCFDKYTGNTF [FN1_Y101_YF]
y

Determine whether measured phosphorylation enrichment meets or exceeds 0.8 for YGGLRYGYGGL [KRTAP20-2_Y13_V17G]
y

Determine whether measured phosphorylation enrichment meets or exceeds 0.8 for ACCLLYCGDVV [TUBA4A_Y319_R320C]
y

Determine whether measured phosphorylation enrichment meets or exceeds 0.8 for AFPVSYSSSSA [RET_Y687_G691S]
n
